tested on: OVCAR-5 ovarian; test: NCI-60 one-dose screen, 48 h (100 = growth as untreated, 0 = no growth, -100 = all killed); conditions: 10 µM unless noted
About 83,000 compounds went through this panel and 20% of them were active in at least one assay; those are over-represented in the sample as a whole. The source made the active and inactive calls. How the source made its calls: active means growth percent below 10; inactive means the rest.
Consider the following compounds; for each one, report its growth.

Item under review: COc1ccc(Cn2cc3c(c2-c2ccccc2)CCc2cnoc2-3)cc1 . Reported growth?
26% (inactive)

Item under review: OCCNCCNC(Cc1ccc(Cl)cc1)c1ccccc1 (stereo not drawn) . Reported growth?
63.6% (inactive)

Item under review: CNC(=O)c1cc(Oc2ccc3c(c2)sc2nc(-c4ccc(OC)cc4)cn23)ccn1 . Reported growth?
36% (inactive)

Item under review: Cc1ccc(S(=O)(=O)c2nc(-c3ccccc3)oc2Sc2nc3ccccc3s2)cc1 . Reported growth?
124% (inactive)

Item under review: O=C(CSc1nc(-c2ccccc2)cc(=O)[nH]1)Nc1nc(-c2ccccc2)cs1 . Reported growth?
95.9% (inactive)

Item under review: COc1ccc2c(c1)/C(=N/c1n[nH]c(=S)s1)C(=O)N2 . Reported growth?
102% (inactive)

Item under review: COc1cc(Cl)c(C)cc1NC(=O)c1cc2ccccc2cc1O . Reported growth?
20% (inactive)

Item under review: COc1ccc(-c2nc3c(N)c(CO)cnc3s2)cc1 . Reported growth?
80.4% (inactive)
